- measurement protocol: circadian clock period modulators, cell-based, LOPAC library, luminescence reporter (AID 2774);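 also: values are relative to mean of DMSO wells on each plate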
- applied conditions: circadian reporter cells, at 7 µM, actives lie on both sides
Active and inactive are the calls of the source. No rule for the calls is given here.
Measured period change, listed per entry.

stdin: Returns the measured period change for the input compound. Input: CC[N+](CC)(CC)CC
stdout: 0.115 h (inactive)

stdin: Returns the measured period change for the input compound. Input: CN[C@@H](C)[C@H](O)c1ccccc1
stdout: -0.07 h (inactive)

stdin: Returns the measured period change for the input compound. Input: CN1CCC23CCCC[C@H]2C1Cc1ccc(O)cc13 (some centres not stated)
stdout: -0.06 h (inactive)

stdin: Returns the measured period change for the input compound. Input: CC(NC(C)(C)C)C(=O)c1cccc(Cl)c1 (configuration not stated)
stdout: 0.18 h (inactive)

stdin: Returns the measured period change for the input compound. Input: CCCN(CCC)[C@H]1CCc2c(F)ccc(O)c2C1
stdout: -0.075 h (inactive)

stdin: Returns the measured period change for the input compound. Input: NCCc1c[nH]c2ccc(O)cc12
stdout: -0.28 h (inactive)

stdin: Returns the measured period change for the input compound. Input: O=C(OC1CCN(CCCl)CC1)C(c1ccccc1)c1ccccc1
stdout: -0.15 h (inactive)

stdin: Returns the measured period change for the input compound. Input: CC(N)[C@H](O)c1ccc(O)c(O)c1 (some centres not stated)
stdout: -0.05 h (inactive)

stdin: Returns the measured period change for the input compound. Input: O=C(O)CC[N+](=O)[O-]
stdout: -0.005 h (inactive)

Entry source: PubChem BioAssay
